Values compiled from PubChem BioAssay AID686978.

Assay: qHTS for Inhibitors of human tyrosyl-DNA phosphodiesterase 1 (TDP1): qHTS in cells in absence of CPT; also: nearly all actives have a fitted effect of over 55% in size
Conditions: DT40 Tdp1-/- hTDP1 cells, no CPT, ATP luminescence, 48 h
Description: Human tyrosyl-DNA phosphodiesterase 1 (TDP1) is a novel repair gene, and we propose to use it as a new target for anticancer drug development. […] For the primary screen, Tdp1-/-;hTDP1 cells will be exposed to small molecules in the presence or absence of CPT, and their growth kinetics will be evaluated after 48 hours by measuring ATP activity. […] The hit compounds will then be evaluated in the presence or absence of CPT using Tdp1-/- cells. […]
Hit rate of the full screen: of about 420,000 compounds, about 64,000 (15%) were called active. Inconclusive results (about 27%) are left out. Calls follow the shape of the dose curve; as a rule, active = well fitted inhibition curve with a large enough effect; inconclusive = small, poorly fitted or top-dose-only effect; inactive = flat fitted curve, though single readings scatter. The list is a sample of the results.
Reply using exactly one outcome from class 1 = active, class 0 = inactive

Use these answered entries as a reference point.
[
  {
    "molecule": "Cc1cccc(OCC(=O)NCCNC(=O)c2cccnc2)c1",
    "discrete label": "class 0"
  },
  {
    "molecule": "NC(=O)CN1CCCC1c1ccc2c(c1)OCCO2 (configuration not stated)",
    "discrete label": "class 0"
  },
  {
    "molecule": "Cc1c(O)cc2c(c1C)O[C@](C)(CCC[C@H](C)CCC[C@H](C)CCCC(C)C)CC2",
    "discrete label": "class 0"
  },
  {
    "molecule": "COc1ccc(-n2c(SCC(=O)OC(C)C)nnc2-c2ccccn2)cc1",
    "discrete label": "class 0"
  },
  {
    "molecule": "CCn1nnnc1SCC(=O)Nc1ccc(N(C)C)cc1",
    "discrete label": "class 0"
  }
]

Exercise: # outcome recorded in this test, key = C[C@H](CO)N1C[C@H](C)[C@@H](CN(C)C(=O)NC2CCCCC2)Oc2ccc(NC(=O)c3ccncc3)cc2C1=O
Key: class 0

Exercise: Record lookup: outcome of this test for CN(C)Cc1ccccc1C1(O)c2ccccc2CSc2ccccc21 (configuration not stated) ?
Key: class 1

Exercise: What was the test verdict on COc1ccc(NC(=O)[C@H](NC(=O)[C@@H]2Cc3ccccc3CN2)c2ccccc2)cc1 ?
Key: class 0

Exercise: Just curious, what result did CCn1ccnc1CN1CCCC(C(=O)c2ccc3c4c(cccc24)CC3)C1 (configuration not stated) get here?
Key: class 1

Exercise: Lab log entry: O=S(=O)(NCCc1ccc(Cl)cc1)c1cccs1 — outcome as called in the assay?
Key: class 0

Exercise: Assay outcome for O=[N+]([O-])c1cccc(C2=NCCS2)c1 : what was it?
Key: class 0

Exercise: Outcome logged for CCN(CC(=O)Nc1ccc(OC)cc1)C(=O)c1ccc(=O)n(Cc2ccccc2)n1 in this assay:
Key: class 0
